The measurements presented in this section are drawn from patent US20100190849A1.

System: Aedes aegypti
protocol_description: K & D module mosquito anti-biting (repellent) bioassay
Type: in vivo
condition: Exp. 8; 25 nmol/cm^2 cloth; 12 replicates
Marks after values point to notes of the source that are not given here.
# Proportion Not Biting values compiled below
metric_name: Proportion Not Biting

• C=C1CC[C@@H]2[C@H]([C@H]3[C@H]1CC[C@]3(C)O)C2(C)C = 0.48^b
• C=C(C)C1CCC2(C)CCCC(C)(O)C2C1 [intermedeol, (4S,5S,7R,10S)-eudesm-11-en-4-ol] = 0.62^c
• C[C@H]1CCCCN1C(=O)[C@@H]1CC=CCC1 [SS220, reference compound] = 0.67^c
• CC1=CCC[C@@H]2[C@@](C)(CC=O)[C@H](C)CC[C@@]12C = 0.73^a
